method: qHTS assay to test for compound auto fluorescence at 460 nm (blue) in HEK293 cell free culture (AID 720681)
measurement.conditions: cell-free medium, autofluorescence 405/460 nm (blue); series mostly up to 91.3 µM
Description: U.S. Tox21 Program National Center for Advancing Translational Sciences [NCATS] NIH Chemical Genomics Center [NCGC] U.S. Environmental Protection Agency [EPA] National Institutes of Environmental Health Sciences [NIEHS] National Toxicology Program [NTP] U.S. Food and Drug Administration [FDA] Tox21 Assay Overview: Compound auto fluorescence often interferes with screening of the compound library against various biological targets and signaling pathways. […] This assay includes the blue fluorescence data. […]
Activity calls are given as the source filed them. The call rests on the fitted dose curve; in most records, active means well fitted curve in the direction sought with a large enough effect in the repeat runs; inconclusive means weak or mixed curves; inactive means flat fitted curve, though single readings scatter.
measured.endpoint: outcome

* CNC(=S)S | inactive
* CC(C)CON=O | inactive
* c1ccc2c(c1)Nc1ccccc1S2 | inactive
* COc1ccc(O)c(C(C)(C)C)c1 | inactive
* Oc1ccc(Cl)cc1Cl | inactive
* CSc1nc(NC(C)C)nc(NC(C)C)n1 | inactive
* CCCCSP(=O)(SCCCC)SCCCC | inactive
* NN=C(N)N | inactive
* COP(=S)(OC)Oc1ccc(S(=O)(=O)N(C)C)cc1 | inactive
* CCC[CH2][Sn]([Cl])([Cl])[CH2]CCC | inactive
* CC(C)=CC1C(C(=O)OCc2cccc(Oc3ccccc3)c2)C1(C)C (stereo not given) | inactive
* N#CC(c1ccccc1)c1ccccc1 | inactive
* CN(C)c1ccccc1 | inactive
* CCOC(=O)c1ccccc1N | inactive
* CCOP(=O)(OCC)OCC | inactive
* CCOP(=S)(OCC)SCn1c(=O)oc2cc(Cl)ccc21 | inactive
* CCN(CC)C(=O)C(C)Oc1cccc2ccccc12 (stereo not given) | inactive
* O=C1CCCO1 | inactive
* CCCCCCCCCc1ccc(O)cc1 | inactive
* O=S(=O)(O)C(F)(F)C(F)(F)C(F)(F)C(F)(F)C(F)(F)C(F)(F)C(F)(F)C(F)(F)F | inactive
* CC1CC(=O)O1 (stereo not given) | inactive
* CC(C)COC(=O)c1ccccc1C(=O)OCC(C)C | inactive
* Nc1ccc2ccccc2c1 | inactive
* COP(=S)(OC)Oc1ccc(Sc2ccc(OP(=S)(OC)OC)cc2)cc1 | inactive
* Cc1cc(Cl)ccc1N=CN(C)C | inactive
* S=c1[nH]c2ccccc2[nH]1 | inactive
* ClCC(Cl)CCl | inactive
* CC(C)(c1ccccc1)c1ccc(O)c(C(C)(C)c2ccccc2)c1 | inactive
* CS(=O)(=O)NC(=O)c1cc(Oc2ccc(C(F)(F)F)cc2Cl)ccc1[N+](=O)[O-] | inactive
* CC(C)(O)C(=O)Nc1ccc([N+](=O)[O-])c(C(F)(F)F)c1 | inactive

====

method: qHTS assay to test for compound auto fluorescence at 590 nm (red) in HEK293 cell free culture (AID 720683)
measurement.conditions: cell-free medium autofluorescence, Ex540/Em590 red; series mostly up to 91.3 µM
Active and inactive are the calls of the source. The call rests on the fitted dose curve; in most records, active means well fitted curve in the direction sought with a large enough effect in the repeat runs; inconclusive means weak or mixed curves; inactive means flat fitted curve, though single readings scatter.
measured.endpoint: outcome

• CC(C)CON=O = inactive
• Cc1cccc(N=Nc2ccc(N(C)C)cc2)c1 = inactive
• CCCCCCCC[N+](C)(CCCCCCCC)CCCCCCCC = inactive
• ClCc1ccccn1 = inactive
• ClC(Cl)(Cl)c1ccccc1 = inactive
• CCCCOCC1CO1 (stereo unspecified) = inactive

Taken from PubChem BioAssay (Tox21).
